All figures here come from patent US11584747B2.

biological target: human DGKζ (Homo sapiens (Human)); experiment: DGKζ LIPGLO assay (extruded liposome substrate, ADP-Glo luminescence); format: biochemical; conditions: liposome assay; read-out: DGK zeta LIPGLO IC50
Sequence (Q13574 other isoform, or with tags, fused parts or gaps): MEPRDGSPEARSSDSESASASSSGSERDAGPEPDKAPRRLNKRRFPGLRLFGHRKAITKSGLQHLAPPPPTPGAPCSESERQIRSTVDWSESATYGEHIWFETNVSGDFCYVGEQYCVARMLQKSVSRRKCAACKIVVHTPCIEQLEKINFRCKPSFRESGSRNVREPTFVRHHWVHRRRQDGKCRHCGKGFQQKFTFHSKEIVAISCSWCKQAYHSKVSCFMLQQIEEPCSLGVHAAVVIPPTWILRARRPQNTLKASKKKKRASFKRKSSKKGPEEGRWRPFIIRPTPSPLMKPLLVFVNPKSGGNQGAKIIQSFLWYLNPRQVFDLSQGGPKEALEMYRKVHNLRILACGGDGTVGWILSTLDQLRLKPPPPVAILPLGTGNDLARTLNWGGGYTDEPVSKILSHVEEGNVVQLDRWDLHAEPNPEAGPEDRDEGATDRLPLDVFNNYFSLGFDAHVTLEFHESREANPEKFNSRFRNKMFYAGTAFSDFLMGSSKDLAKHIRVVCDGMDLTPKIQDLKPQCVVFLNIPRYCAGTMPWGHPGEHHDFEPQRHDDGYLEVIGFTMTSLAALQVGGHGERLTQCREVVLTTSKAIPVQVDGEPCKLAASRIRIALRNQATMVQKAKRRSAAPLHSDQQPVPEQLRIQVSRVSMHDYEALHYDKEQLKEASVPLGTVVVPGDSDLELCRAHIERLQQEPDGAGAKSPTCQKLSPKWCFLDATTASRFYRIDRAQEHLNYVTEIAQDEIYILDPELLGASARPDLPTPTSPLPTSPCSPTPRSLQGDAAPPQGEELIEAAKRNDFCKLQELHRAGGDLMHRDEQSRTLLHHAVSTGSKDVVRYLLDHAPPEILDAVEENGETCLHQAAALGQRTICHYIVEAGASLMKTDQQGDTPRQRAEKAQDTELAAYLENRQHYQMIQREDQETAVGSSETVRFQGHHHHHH
Property: IC50; scope: individual compounds
# output: bare number, implied unit nM

For orientation, consider the following solved cases.
>>> reported_measurement("CC[C@H]1CN(C(C)c2ccc(C(F)(F)F)nc2)[C@H](CC)CN1c1nc(=O)n(C)c2ccc(C#N)nc12 (single isomer, unassigned) [Example 45]")
510
>>> reported_measurement("CC[C@H]1CN(C(C)c2ccc3oc(=O)n(C)c3c2)[C@H](CC)CN1c1nc(=O)n(C)c2ccc(C#N)nc12 (stereo partly drawn) [Example 202]")
420
>>> reported_measurement("CC[C@@H]1CN(c2nc(=O)n(C)c3ccc(C#N)nc23)[C@@H](C)CN1C(c1ccc(F)cc1)c1nc(C2CC2)cs1 (single isomer, unassigned) [Example 51]")
27
>>> reported_measurement("COC[C@@H]1CN(c2nc(=O)n(C)c3ccc(C#N)nc23)[C@@H](C)CN1C(c1ccc(F)cc1)c1ccc(C(F)(F)F)cn1 (single isomer, unassigned) [Example 179]")
22

## Task // fetch IC50 given entry CC[C@@H]1CN(c2nc(=O)n(C)c3ccc(C#N)nc23)[C@@H](C)CN1C(c1ccc(F)cc1)c1nc(C2CC2)cs1 (single isomer, unassigned) [Example 50]
## Result 37

## Task // fetch IC50 given entry CC[C@H]1CN(C(C)c2ccc(OC(F)(F)F)cc2)[C@H](C)CN1c1nc(=O)n(C)c2ccc(C#N)nc12 (stereo partly drawn) [Example 123]
## Result 1330
